# System: UACC-257 melanoma
# test.details: NCI-60 one-dose screen, 48 h (100 = growth as untreated, 0 = no growth, -100 = all killed)
# condition.details: 10 µM unless noted
# Description: Cells are grown in 96 well plates and exposed to the test compound for 48 hours. Compounds are tested at a single concentration, which is 10^-5 M for most compounds. The reported endpoint is percent growth (GI% or GIPRCNT), where numbers from 0 - 100% represent growth inhibition, and numbers from -100% - 0 represent cell death. For example, a value of 40 represents 60% growth inhibition. A value of 0 means no net growth occurred over the course of the experiment. […]
Compounds without any hit were thinned out: in the full panel of roughly 83,000, 20% have a hit. The source made the active and inactive calls. Rule for the calls: active = growth percent below 10; inactive = the rest.
Reported growth values for a set of molecules

molecule	growth
Brc1ccccc1Nc1ccc2nnc(-c3ccncc3)n2n1	106% (inactive)
FC(F)(F)c1cc(CNc2ncc(Br)c(Cl)n2)cc(C(F)(F)F)c1	96.4% (inactive)
COc1nc2c(cc1S(=O)(=O)c1ccccc1)CCc1c-2cnn1-c1ccccc1	78.2% (inactive)
CCCCc1ccc(NC(=O)C(F)(F)F)cc1	110% (inactive)
COc1ccc2nc(-n3nc(C)cc3C)c(-n3nc(C)cc3C)nc2c1	119% (inactive)
COC(=O)[C@@H]1CCCN1C(=O)[C@@H]1CCCN1C(=O)[C@@H](Cc1c[nH]c2ccccc12)NC(=S)Nc1cc(C(F)(F)F)cc(C(F)(F)F)c1	72.3% (inactive)
COc1cc(-c2nc3ccccc3o2)cc(CN2CCN(c3ccccc3)CC2)c1O	86.7% (inactive)
CC1SC(c2cccc(Oc3ccccc3)c2)N(CCc2cccs2)C1=O (stereo unspecified)	-45.1% (active)
Cn1c2ccccc2c2nn(C(=O)c3ccccc3)c(=O)nc21	118% (inactive)
O=S(=O)(Nc1ncccn1)c1ccc(Nc2ccc3nnc(-c4ccncc4)n3n2)cc1	103% (inactive)
Cc1c(C(=O)Nc2nc(-c3ccccc3)cs2)nnn1-c1ccccc1Br	13.2% [50 µM] (inactive)
CCCCCCCCCCCCSC1=CC(=O)C=CC1=O	73.2% (inactive)
NC(=O)c1cc(I)ccc1NC(=O)COc1ccc(Cl)cc1Cl	89.6% (inactive)
C[C@@H](Oc1cc(-c2cnn(C3CC4(CCCNC4)C3)c2)cnc1N)c1c(Cl)ccc(F)c1Cl (stereo partly specified)	-87.2% (active)
O=[N+]([O-])c1ccc(C=C2C(Cl)=C(Cl)C(Cl)=C2Cl)cc1	67.7% (inactive)
Cc1cc(=O)oc2c1ccc1oc(C(=O)c3ccccc3)c(C)c12	100% (inactive)
Cc1cc(=O)[nH]n1-c1cc(Cl)ccc1N	89.8% (inactive)
Cc1cccc2c(=O)c3c(sc12)c(NCCNCCO)nc1ccccc13	77.8% (inactive)
O=C(N/N=C/c1ccc(F)cc1)c1[nH]c2ccc(I)cc2c1-c1ccccc1	93.3% (inactive)
Cc1ccc(-c2c3c(N)c4c(nc3nc3c2c(C)nn3-c2ccccc2)CCCC4)cc1	92.2% (inactive)
COc1ccc(-c2nc(Nc3ccc(F)cc3)nc(Nc3ccc4c(c3)nc(C)n4Cc3ccccc3)n2)cc1	43.8% (inactive)
Cc1ccc2nc(NC(=O)CSC(=S)N3CCN(Cc4ccccc4)CC3)sc2c1	-63.4% (active)
Cc1cc(NS(=O)(=O)c2ccc(NC(=O)COc3ccc(-c4cc5ccccc5[nH]4)cc3)cc2)no1	56.9% (inactive)
O=S(=O)(Nc1ccccc1Cl)c1ccc(-c2cnc(C3CC3)o2)cc1	69.4% (inactive)
O=C1c2c(c3c4cc(Br)ccc4[nH]c3c3ccc4ccccc4c23)C(=O)N1O	88.5% (inactive)
CCCN(CCC)c1ccc(/C=C/c2ccc3cc(OCC)ccc3n2)cc1	84.3% (inactive)
COc1ccc(/C=C/C(=O)N2CCC(O)CC2)cc1OC1CCCC1	101% (inactive)
COc1ccc(C2CC(c3cc(OC)c(OC)c(OC)c3)=NN2c2ccc(S(N)(=O)=O)cc2)cc1 (stereo unspecified)	73.7% (inactive)
COC(=O)c1cc(-c2ccc(C)cc2)n(C(=O)CSc2nc3sc(C(N)=O)c(C)c3c(=O)n2Cc2ccccc2)n1	106% (inactive)
CCCC1=NNC(=O)C1	90.9% (inactive)
COc1ccc(NC(=O)c2ccc3c(c2)nc(-c2ccc(Cl)cc2)n3-c2cc(C(C)(C)C)[nH]n2)cc1	96.4% (inactive)
c1ccc2cc(Cn3c(-c4ccc5ccccc5c4)[n+](Cc4ccc5ccccc5c4)c4ccccc43)ccc2c1	-38.5% (active)
COc1cccc(OC(=O)c2ccccc2)c1OC(=O)c1ccccc1	87% (inactive)
COc1ccc(OC2=C(C#N)C(=N)N3c4ccccc4Sc4ccccc4C3N2)cc1 (stereo unspecified)	115% (inactive)
Cc1nn(-c2ccccc2)c2nc3nc4c(c(N)c3c(-c3ccc(Cl)cc3)c12)CCC4	91.4% (inactive)
O=c1c2c(=NCCN3CCCC3)cc3c(=O)n(CCCN4CCOCC4)c(=O)c4ccc(c(O)n1CCCN1CCOCC1)c2c4-3	-14.3% (active)
O=c1oc2ccccc2cc1-c1csc(N=Nc2c(O)[nH]c3ccc(Cl)cc23)n1	80.1% (inactive)
O=C1C(OCCOc2ccccc2)=C(OCCOc2ccccc2)C(=O)c2ccccc21	14.8% (inactive)
Clc1ccccc1Nc1ccc2nnc(-c3ccncc3)n2n1	114% (inactive)
Cc1cc(Cl)c2c(Cl)ccc(Cl)c2n1	102% (inactive)
CCC(C)Oc1cc(/C=N/NC(=O)c2cnn3c2NC(c2ccccc2)C3)ccc1OC (stereo unspecified)	55.5% (inactive)

Values compiled from PubChem BioAssay (NCI).
